Data origin: patent US7220720B2

Catalogue of molecules with associated % Activation at 10 μM
target: human MCH receptor (Homo sapiens, UniProt Q99705)
Sequence (Q99705 whole entry): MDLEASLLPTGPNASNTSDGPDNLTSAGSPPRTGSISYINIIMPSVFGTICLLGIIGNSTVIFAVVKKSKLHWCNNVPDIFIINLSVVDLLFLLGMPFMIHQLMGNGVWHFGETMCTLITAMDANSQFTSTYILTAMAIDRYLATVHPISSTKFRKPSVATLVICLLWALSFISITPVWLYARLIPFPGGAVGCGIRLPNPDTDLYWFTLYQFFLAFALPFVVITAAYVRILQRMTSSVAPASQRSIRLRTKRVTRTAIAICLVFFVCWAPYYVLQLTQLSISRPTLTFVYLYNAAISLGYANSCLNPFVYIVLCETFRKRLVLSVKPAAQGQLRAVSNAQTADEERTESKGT
assayMethodText: Aequorin bioluminescence functional assay in 293-AEQ17 cells transfected with human MCH receptor
Type: cell-based
Design: expressed in transfected cells; host or cells: 293-AEQ17 (aequorin-expressing HEK-293 reporter line), transient lipofectamine transfection, pcDNA-3 vector
experimentalSetup: Table 1; at 10 μM; aequorin functional assay
Where a SMILES comes first, the peptide text is derived from it. Bridges are numbered along the chain shown (N, C = ends).
Record the value in %, omitting the unit from your answer.

Guide cases for % Activation at 10 μM, answers given:
molecule	% Activation at 10 μM (%)
CSCC[C@@H]1NC(=O)[C@@H](NC(C)=O)CSSC[C@@H](C(N)=O)NC(=O)[C@@H]2CCCN2C(=O)[C@H](CCCNC(=N)N)NC(=O)[C@H](Cc2ccc(O)cc2)NC(=O)[C@H](C(C)C)NC(=O)[C@H](CCCNC(=N)N)NC(=O)CNC(=O)[C@H](CC(C)C)NC1=O [compound 9]	74
CSCC[C@@H]1NC(=O)[C@@H](NC(=O)[C@H](CCCNC(=N)N)NC(=O)[C@H](CC(C)C)NC(=O)[C@H](CCSC)NC(=O)[C@H](CC(=O)O)NC(=O)[C@H](Cc2ccccc2)NC(=O)[C@@H](N)CC(=O)O)CSSC[C@@H](C(N)=O)NC(=O)[C@@H]2CCCN2C(=O)[C@H](CCCNC(=N)N)NC(=O)[C@H](Cc2ccc(O)cc2)NC(=O)[C@H](C(C)C)NC(=O)[C@H](CCCNC(=N)N)NC(=O)CNC(=O)[C@H](CC(C)C)NC1=O [compound 10] (H-DFDMLRCMLGRVYRPC-NH2; disulfide 7-16)	99
CSCC[C@@H]1NC(=O)[C@@H](NC(=O)[C@H](CCCNC(=N)N)NC(C)=O)CSSC[C@@H](C(N)=O)NC(=O)[C@@H]2CCCN2C(=O)[C@H](CCCNC(=N)N)NC(=O)[C@H](Cc2ccc(O)cc2)NC(=O)[C@H](C(C)C)NC(=O)[C@H](CCCNC(=N)N)NC(=O)CNC(=O)[C@H](CC(C)C)NC1=O [compound 7]	123

Moving on to another molecule below.
Lookup: Report measured % Activation at 10 μM; entry is CSCC[C@@H]1NC(=O)[C@@H](NC(=O)[C@H](CCCNC(=N)N)NC(=O)[C@H](CC(C)C)NC(=O)[C@H](CCSC)NC(=O)[C@H](CC(=O)O)NC(=O)[C@H](Cc2ccccc2)NC(=O)[C@@H](N)CC(=O)O)CSSC[C@@H](C(=O)N[C@@H](Cc2c[nH]c3ccccc23)C(=O)N[C@@H](CCC(N)=O)C(=O)N[C@H](C(=O)O)C(C)C)NC(=O)[C@@H]2CCCN2C(=O)[C@H](CCCNC(=N)N)NC(=O)[C@H](Cc2ccc(O)cc2)NC(=O)[C@H](C(C)C)NC(=O)[C@H](CCCNC(=N)N)NC(=O)CNC(=O)[C@H](CC(C)C)NC1=O [compound 11]
Found: 100
